# testMethodNotes: Bleaching on BC-1 by 4-Ethylbenzaldehyde with various initiators
# Set-up: key: Δ(ΔR): reflectance change of stained cloth relative to buffer ΔR
# conditionSummary: initiator alone, 1 mM; run #2; σav = 0.4
Entries and their Δ(ΔR), #2
Enter a number only.

compound="O=C1c2ccccc2C(=O)N1O [NHPI, N-hydroxyphthalimide]" endpointlabel="Δ(ΔR), #2" resultnumber=0.1
compound="CC1(C)CCCC(C)(C)N1[O] [TEMPO]" endpointlabel="Δ(ΔR), #2" resultnumber=1.8

// query Δ(ΔR), #2 value for entry O=C1CCC(=O)N1O [NHSI]
0.0

Which measured Δ(ΔR), #2 value corresponds to O=C1C=CC(=O)N1O [NHMI] ?
0.1

Could you tell me which Δ(ΔR), #2 is on file for O=C1CC(S(=O)(=O)O)C(=O)N1O (centres unmarked) [NHSISA] ?
0.5
